TARGET OF ASSAY: human TLR8 (Homo sapiens, UniProt Q9NR97)
Sequence (Q9NR97 27-1041): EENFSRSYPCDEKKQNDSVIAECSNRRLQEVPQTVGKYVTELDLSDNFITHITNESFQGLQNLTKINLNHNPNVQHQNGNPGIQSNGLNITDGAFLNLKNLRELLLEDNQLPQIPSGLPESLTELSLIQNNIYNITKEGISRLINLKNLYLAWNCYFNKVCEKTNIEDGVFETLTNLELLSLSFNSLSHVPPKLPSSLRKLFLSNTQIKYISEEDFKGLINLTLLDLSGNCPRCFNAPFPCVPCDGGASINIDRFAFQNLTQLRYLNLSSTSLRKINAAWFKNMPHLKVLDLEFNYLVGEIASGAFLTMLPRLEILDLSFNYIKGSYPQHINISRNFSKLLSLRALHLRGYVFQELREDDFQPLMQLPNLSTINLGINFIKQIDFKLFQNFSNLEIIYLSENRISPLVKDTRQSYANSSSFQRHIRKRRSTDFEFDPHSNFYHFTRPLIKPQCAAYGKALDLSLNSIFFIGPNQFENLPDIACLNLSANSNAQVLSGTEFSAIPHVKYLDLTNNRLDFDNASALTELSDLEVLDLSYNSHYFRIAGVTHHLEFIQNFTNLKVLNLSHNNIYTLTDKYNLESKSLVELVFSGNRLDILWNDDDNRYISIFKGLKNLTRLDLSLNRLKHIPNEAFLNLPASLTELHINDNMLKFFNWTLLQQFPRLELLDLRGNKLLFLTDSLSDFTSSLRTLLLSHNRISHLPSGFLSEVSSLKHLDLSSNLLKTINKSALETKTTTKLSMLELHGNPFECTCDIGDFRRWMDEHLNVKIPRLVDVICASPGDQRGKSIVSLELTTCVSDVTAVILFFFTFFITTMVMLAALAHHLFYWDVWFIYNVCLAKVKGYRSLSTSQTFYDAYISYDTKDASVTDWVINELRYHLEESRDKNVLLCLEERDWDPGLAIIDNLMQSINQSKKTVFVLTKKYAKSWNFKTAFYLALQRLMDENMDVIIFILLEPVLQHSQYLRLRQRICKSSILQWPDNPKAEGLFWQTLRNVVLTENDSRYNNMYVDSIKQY
ASSAY TEXT: HEK293-Blue-hTLR-8 cells assay
RUN CONDITIONS: HEK293-Blue-hTLR8 cells, R848 stimulation, 20 hrs, SEAP reporter; read-out: HEK/hTLR8 IC50
Field 'label' (enum: fulfilled / not fulfilled). Set to fulfilled when IC50 is strictly under 30 nM; else not fulfilled.

Previously resolved entries follow.
INSERT INTO results (compound, label) VALUES
  ('C[C@@H]1CN(c2ccc(C#N)c3ncccc23)C[C@@H]2C[C@@H](c3ccc(CC4CNCCO4)cc3)CCN21 (stereo partly drawn) [Example 26]', 'fulfilled'),
  ('C[C@@H]1CN(c2ccc(C#N)c3ncccc23)C[C@@H]2C[C@@H](Oc3ccc(N4CCNCC4)nc3)CCN21 [Example 16]', 'fulfilled'),
  ('C[C@@H]1CN(c2ccc(C#N)c3ncccc23)C[C@@H]2C[C@@H](Oc3cncc(N4CCNCC4)c3)CCN21 [Example 29]', 'fulfilled'),
  ('C[C@@H]1CN(c2ccc(C#N)c3ncccc23)C[C@H]2C[C@H](c3ccc(N4CCNCC4)nc3)CCN21 [Example 15]', 'not fulfilled'),
  ('[2H]c1ccc2c(N3C[C@@H]4C[C@H](N5CCN(c6ccncc6)CC5)CCN4[C@H](C)C3)ccc(C#N)c2n1 [Example 37]', 'not fulfilled');

In: Identify whether the compound C[C@@H]1CN(c2ccc(C#N)c3ncccc23)CC2C[C@H](c3ccc(N4CCNCC4)cc3)CCN21 (stereo partly drawn) [Example 3] records IC50 below 30 nM.
Out: fulfilled
